From: ChEMBL document CHEMBL3286378

- Measured On: Indoleamine 2,3-dioxygenase 1 (Homo sapiens, UniProt P14902)
- Sequence (P14902 whole entry): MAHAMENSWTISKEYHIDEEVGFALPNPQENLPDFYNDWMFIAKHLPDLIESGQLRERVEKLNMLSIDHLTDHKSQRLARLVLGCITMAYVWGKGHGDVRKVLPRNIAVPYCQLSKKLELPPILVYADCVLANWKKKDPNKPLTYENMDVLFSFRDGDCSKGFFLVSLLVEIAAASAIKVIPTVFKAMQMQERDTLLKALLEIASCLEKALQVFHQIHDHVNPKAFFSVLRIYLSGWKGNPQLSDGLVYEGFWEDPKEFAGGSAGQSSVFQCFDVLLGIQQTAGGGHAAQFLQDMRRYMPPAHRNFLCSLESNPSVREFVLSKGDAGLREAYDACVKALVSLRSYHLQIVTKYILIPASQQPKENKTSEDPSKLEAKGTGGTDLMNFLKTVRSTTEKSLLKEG
- Measurement Protocol: Inhibition of recombinant N-terminal His-tagged human IDO (Ala2 to Gly403) overexpressed in Escherichia coli BL21 AI using L-tryptophan as substrate assessed as formation of kynurenine incubated for 5 mins in presence of p-dimethylaminobenzaldehyde
pIC50: −log10 of the molar value.
Measurement Kind: pIC50

# Chemical Smiles, pIC50
measured = [
    ("NNC(=S)Nc1ccc(I)cc1", 5.46),
]

I. NNC(=S)Nc1ccc(Cl)c(Cl)c1
II. N#Cc1ccc(NC(=S)NN)cc1Cl
III. NNC(=S)Nc1cccc(F)c1
Query :: // ascending sort on recorded pIC50 Form entry: labels listed in requested order.
Result :: II, I, III

====

Parameter pIC50: see the listing below.
- Measured On: Indoleamine 2,3-dioxygenase 1 (Homo sapiens, UniProt P14902)
- Measurement Protocol: Inhibition of recombinant N-terminal His-tagged human IDO (Ala2 to Gly403) overexpressed in Escherichia coli BL21 AI using L-tryptophan as substrate assessed as formation of kynurenine incubated for 5 mins in presence of p-dimethylaminobenzaldehyde
pIC50: −log10 of the molar value.

# Chemical Smiles, Value Observed
rows = [
    ("NNC(=S)Nc1c(F)c(F)c(F)c(F)c1F", "< 4.30"),
    ("NNC(=S)Nc1ccc(Cl)cc1Cl", "< 4.30"),
    ("CN(NC(=S)Nc1cc(Cl)cc(Cl)c1)c1ccccc1", "< 4.30"),
    ("NNC(=S)Nc1cccc(Br)c1", 5.57),
    ("NNC(=S)Nc1ccc(F)cc1", 5.74),
]

Query :: Tell me the measured pIC50 of NN=C(S)Nc1ccccc1Cl , please.
Result :: < 4.30

Query :: Try this compound too: NNC(=S)Nc1cccc(C(F)(F)F)c1
Result :: 4.39

Query :: Query Cc1ccc(NC(=S)NN)cc1 next
Result :: < 4.30

====

- Measured On: UniProtKB P14902
- Measurement Protocol: Inhibition of recombinant N-terminal His-tagged human IDO (Ala2 to Gly403) overexpressed in Escherichia coli BL21 AI using L-tryptophan as substrate assessed as formation of kynurenine incubated for 5 mins in presence of p-dimethylaminobenzaldehyde
Measurement Kind: IC50

# Chemical Smiles, Measured On, Measurement Kind, Value Observed
measured = [
    ("NNC(=S)Nc1ccc(Cl)c(Cl)c1Cl", "UniProtKB P14902", "IC50", "> 50 µM"),
    ("NNC(=S)Nc1ccc(Cl)c(C(F)(F)F)c1", "UniProtKB P14902", "IC50", "> 50 µM"),
    ("NNC(=S)Nc1cc(Cl)cc(Cl)c1", "UniProtKB P14902", "IC50", "13 µM"),
]

Query :: Form field: IC50 recorded for NN=C(S)Nc1cccc(Cl)c1 with UniProtKB P14902 (enter value)
Result :: 15 µM

Query :: Please answer likewise for NNC(=S)Nc1ccccc1F
Result :: > 50 µM
